This listing pairs compounds with measured GI50.
tested on: NCI-H226; test: NCI tumour cell line growth inhibition, 48 h
The source made the active and inactive calls. Cut-off read from the data, not from the text of the source: active = GI50 up to about 1.1 µM and inactive = higher.
MEASURED_ATTRIBUTE: GI50

[
  {
    "COMPOUND": "COc1ccc2c(c1)[n+]([O-])c(C#N)c(N1CCN(c3ccc([N+](=O)[O-])cc3)CC1)[n+]2[O-]",
    "ASSAY_VALUE": "10.7 µM (inactive)"
  },
  {
    "COMPOUND": "CC(=O)Oc1cc2c(n(C)c1=O)-c1ccccc1C2",
    "ASSAY_VALUE": "> 100 µM (inactive)"
  },
  {
    "COMPOUND": "Cn1c2c(c3ccccc31)CCN=C2C1CCCOC1=O (stereo not given)",
    "ASSAY_VALUE": "11.7 µM (inactive)"
  },
  {
    "COMPOUND": "COC(=O)C(=O)C(C(=O)C(=O)Nc1cc([N+](=O)[O-])ccc1C#N)c1nc2ccccc2nc1O (stereo not given)",
    "ASSAY_VALUE": "> 100 µM (inactive)"
  },
  {
    "COMPOUND": "Nc1nc(N)c2nc(-c3ccco3)cnc2n1",
    "ASSAY_VALUE": "> 100 µM (inactive)"
  }
]

###

This listing pairs compounds with measured GI50.
system: OVCAR-3; experiment: NCI tumour cell line growth inhibition, 48 h
Activity calls are given as the source filed them. Rule as the data show it: active = GI50 up to about 1.1 µM and inactive = higher.

[
  {
    "MOLECULAR_STRING": "COc1nc2ncc([C@@H](OC(C)=O)[C@@H](COC(C)=O)OC(C)=O)nc2c(=O)n1C",
    "GI50": "> 100 µM (inactive)"
  },
  {
    "MOLECULAR_STRING": "COc1ccc(Cc2c3cc(OC)c(OC)cc3cc[n+]2C)cc1",
    "GI50": "7.28 µM (inactive)"
  },
  {
    "MOLECULAR_STRING": "CCCCn1cnnc1NS(=O)(=O)c1cc(C)c(Cl)cc1SCC(=O)O",
    "GI50": "> 10 µM (inactive)"
  },
  {
    "MOLECULAR_STRING": "C/C(CCn1[nH]c(=O)ccc1=O)=N\\NC(=O)C(=O)NN",
    "GI50": "> 100 µM (inactive)"
  }
]

###

This listing pairs compounds with measured GI50.
test system: K562; test: NCI tumour cell line growth inhibition, 48 h
Activity calls are given as the source filed them. Cut-off read from the data, not from the text of the source: active = GI50 up to about 1.1 µM and inactive = higher.

[
  {
    "COMPOUND": "CCOC(=O)c1nc2c3c(ncn2n1)Oc1c(c(-c2ccccc2)nn1-c1ccccc1)C3c1ccc(Cl)cc1 (centres undefined)",
    "SYSTEM_UNDER_TEST": "K562",
    "GI50": "> 100 µM (inactive)"
  },
  {
    "COMPOUND": "O/N=C1/C2CC3CC1(c1ccccc1)CC(/C3=N/O)/C2=N\\O (centres undefined)",
    "SYSTEM_UNDER_TEST": "K562",
    "GI50": "> 100 µM (inactive)"
  },
  {
    "COMPOUND": "COC(=O)C1=C(OC(=O)/C(=C/c2ccccc2)c2ccc(OC)cc2)C(C(=O)OC)[C@@]2(O)[C@@H](C(=O)OC)[C@H](C)C[C@@H]1[C@@H]2C(=O)OC (some centres undefined)",
    "SYSTEM_UNDER_TEST": "K562",
    "GI50": "> 100 µM (inactive)"
  },
  {
    "COMPOUND": "COc1cc(Cl)c2c3c(c(C(=O)c4ccccc4)oc13)CCC2",
    "SYSTEM_UNDER_TEST": "K562",
    "GI50": "41.7 µM (inactive)"
  },
  {
    "COMPOUND": "CC1=C(C(=O)Nc2ccccc2)C(c2ccc(C(C)C)cc2)C(C(=O)Nc2ccccc2)=C(C)N1",
    "SYSTEM_UNDER_TEST": "K562",
    "GI50": "12.1 µM (inactive)"
  },
  {
    "COMPOUND": "Nc1cc2c3c(cccc3c1)NC2=O",
    "SYSTEM_UNDER_TEST": "K562",
    "GI50": "> 100 µM (inactive)"
  },
  {
    "COMPOUND": "O=C(N/N=C(COc1ccc(Cl)cc1)\\N=C\\c1ccncc1)c1ccncc1",
    "SYSTEM_UNDER_TEST": "K562",
    "GI50": "> 100 µM (inactive)"
  },
  {
    "COMPOUND": "CCN(CC)Cc1ccc(C(=S)Nc2ccc(Cl)cc2)s1",
    "SYSTEM_UNDER_TEST": "K562",
    "GI50": "1.87 µM (inactive)"
  },
  {
    "COMPOUND": "CC(C)[Si](OC1=CCC[C@H]2NC(=O)[C@@H](Cc3ccccc3)[C@@]12C)(C(C)C)C(C)C",
    "SYSTEM_UNDER_TEST": "K562",
    "GI50": "3.2 µM (inactive)"
  },
  {
    "COMPOUND": "Cc1c2n(c(=O)[nH]c1=O)C1OC(CO)C(N=[N+]=[N-])C1O2 (centres undefined)",
    "SYSTEM_UNDER_TEST": "K562",
    "GI50": "92.5 µM (inactive)"
  },
  {
    "COMPOUND": "CCCCC(/C=C\\COC1CCCCO1)=C/C(=O)OCC (centres undefined)",
    "SYSTEM_UNDER_TEST": "K562",
    "GI50": "45.2 µM (inactive)"
  },
  {
    "COMPOUND": "Cc1c2c(n(CCc3ccc(Cl)cc3)c1C)NN=C(C#N)S2(=O)=O",
    "SYSTEM_UNDER_TEST": "K562",
    "GI50": "84.7 µM (inactive)"
  },
  {
    "COMPOUND": "CC(C)(C)OC(=O)N/C(C=O)=C\\C1CCCCC1",
    "SYSTEM_UNDER_TEST": "K562",
    "GI50": "22.6 µM (inactive)"
  },
  {
    "COMPOUND": "CC1=[N+]([O-])C(C)(C)N(N=O)C1(C)C",
    "SYSTEM_UNDER_TEST": "K562",
    "GI50": "> 10 µM (inactive)"
  },
  {
    "COMPOUND": "CC(C)(C)C(=O)CP(=O)(O)O",
    "SYSTEM_UNDER_TEST": "K562",
    "GI50": "> 100 µM (inactive)"
  },
  {
    "COMPOUND": "C[C@]12CC[C@H](O)CC1CCC[C@@H]2O (some centres undefined)",
    "SYSTEM_UNDER_TEST": "K562",
    "GI50": "> 100 µM (inactive)"
  },
  {
    "COMPOUND": "CC(C)=CC(=O)Cc1nc2ccccc2[nH]c1=O",
    "SYSTEM_UNDER_TEST": "K562",
    "GI50": "> 100 µM (inactive)"
  },
  {
    "COMPOUND": "Cc1[nH]c2ccccc2c1/C=N/NC(=O)c1cccc(I)c1",
    "SYSTEM_UNDER_TEST": "K562",
    "GI50": "24.5 µM (inactive)"
  },
  {
    "COMPOUND": "c1cc(-c2ccc(-c3ccc(C4=NCCCN4)cc3)o2)ccc1C1=NCCCN1",
    "SYSTEM_UNDER_TEST": "K562",
    "GI50": "40.6 µM (inactive)"
  },
  {
    "COMPOUND": "CN(C)CCCNc1ncnc2c1ncn2C1OC(CO)C(O)C1O (centres undefined)",
    "SYSTEM_UNDER_TEST": "K562",
    "GI50": "> 100 µM (inactive)"
  },
  {
    "COMPOUND": "C=C1C(O)C[C@H](OC(C)=O)[C@]2(C)C1C(OC(C)=O)[C@]1(C(C)(C)O)CC(O)C(C)=C1[C@@H](OC(=O)c1ccccc1)C2OC(C)=O (some centres undefined)",
    "SYSTEM_UNDER_TEST": "K562",
    "GI50": "> 10 µM (inactive)"
  },
  {
    "COMPOUND": "Cn1nc(S(N)(=O)=O)s/c1=N/C(N)=S",
    "SYSTEM_UNDER_TEST": "K562",
    "GI50": "> 100 µM (inactive)"
  },
  {
    "COMPOUND": "CCOP(=S)(OCC)Oc1ccc2c(c1)OC(=O)C1(Cl)C2(C)C2(Cl)C(=O)Oc3cc(OP(=S)(OCC)OCC)ccc3C12C (centres undefined)",
    "SYSTEM_UNDER_TEST": "K562",
    "GI50": "27.3 µM (inactive)"
  },
  {
    "COMPOUND": "Cc1nc2c(O)cccc2c(=O)[nH]1",
    "SYSTEM_UNDER_TEST": "K562",
    "GI50": "359 µM (inactive)"
  },
  {
    "COMPOUND": "COc1cccc(/C=N/n2c(-c3ccccc3)n[nH]c2=O)c1",
    "SYSTEM_UNDER_TEST": "K562",
    "GI50": "> 100 µM (inactive)"
  },
  {
    "COMPOUND": "COc1cc(OC)cc(C(=O)CC(=O)c2cc(OC)cc(OC)c2)c1",
    "SYSTEM_UNDER_TEST": "K562",
    "GI50": "46.1 µM (inactive)"
  },
  {
    "COMPOUND": "CCOC(=O)CC1c2ccc(O)cc2OC(=O)C1c1ccc(N)cc1 (centres undefined)",
    "SYSTEM_UNDER_TEST": "K562",
    "GI50": "> 100 µM (inactive)"
  },
  {
    "COMPOUND": "C[C@H](CCc1nc(C#N)c(N)o1)[C@H]1CC[C@H]2[C@@H]3CCC4C[C@@H](O)CC[C@]4(C)[C@H]3C[C@@H](O)[C@]12C (some centres undefined)",
    "SYSTEM_UNDER_TEST": "K562",
    "GI50": "4.46 µM (inactive)"
  },
  {
    "COMPOUND": "CN1C(=O)C2CCCC(=O)N2c2cccnc21 (centres undefined)",
    "SYSTEM_UNDER_TEST": "K562",
    "GI50": "> 100 µM (inactive)"
  }
]
